Each recorded value in this set is attributed to patent US12540120B2.

System: Echinochloa crus-galli (ECHCG)
Test: B6 Pre-Emergence Efficacy—Test 3
Type: in vivo
Settings: pre-emergence application, 250 g/ha, evaluated after 13 days (Test 3)
Quantity Kind: percentage damage caused to the plant, five point scale, ECHCG

Consider the following illustrative entries.
{"Compound": "Cc1ccc(-c2ccc(CCc3c(Cl)ccc(F)c3-c3c(O)c(C)nn(C)c3=O)cc2)o1 [Compound A-1.381]", "Result": 0}
{"Compound": "CSCc1ccc(CCc2c(Cl)ccc(F)c2-c2c(O)c(C)nn(C)c2=O)cc1 [Compound A-1.388]", "Result": "5 (5=80-100%)"}
{"Compound": "Cc1nn(C)c(=O)c(-c2c(F)ccc(Cl)c2CCc2cnn(C3CC3)c2)c1O [Compound A-1.387]", "Result": "5 (5=80-100%)"}

Could you now look at the following compound, please?
Looking up Cc1nn(C)c(=O)c(-c2c(F)ccc(C3CC3)c2CCc2ccnc(F)c2)c1O [Compound C-1.013] , I see its percentage damage caused to the plant, five point scale, ECHCG listed as 5 (5=80-100%)

----------
Tested on: Setaria faberi (SETFA)
Assay: B2 Post-Emergence Efficacy—Test 2
Assay type: in vivo
Details: post-emergence application, 250 g/ha, evaluated after 13 days (Test 2)
The entries below come with measured percentage damage caused to the plant, five point scale, SETFA values attached.

As a guide, the following entries are already answered.
{"Compound": "COC(=O)c1ccc(CCc2c(Cl)ccc(F)c2-c2c(O)c(C)nn(C)c2=O)cc1 [Compound A-1.041]", "Result": "4 (4=60-79%)"}
{"Compound": "Cc1nn(C)c(=O)c(-c2c(F)ccc(Cl)c2CCc2ccc(C#N)cc2)c1O [Compound A-1.036]", "Result": "5 (5=80-100%)"}
{"Compound": "Cc1nn(C)c(=O)c(-c2c(F)ccc(Cl)c2CCc2ccccc2C#N)c1O [Compound A-1.029]", "Result": "4 (4=60-79%)"}

// Cc1nn(C)c(=O)c(-c2c(F)ccc(Cl)c2CCc2ccc(-n3cncn3)cc2)c1O [Compound A-1.385] : percentage damage caused to the plant, five point scale, SETFA value = 5 (5=80-100%)

Lab note: CCN(C)C(=O)c1ccc(CCc2c(Cl)ccc(F)c2-c2c(OC(=O)C(C)C)c(C)nn(C)c2=O)cc1F [Compound A-3.028] gave percentage damage caused to the plant, five point scale, SETFA of 4 (4=60-79%)

Query Cc1cc(CCc2c(Cl)ccc(F)c2-c2c(O)c(C)nn(C)c2=O)ccc1N [Compound A-1.031] yields percentage damage caused to the plant, five point scale, SETFA of 4 (4=60-79%)

Record summary for CSc1ccc(CCc2c(Cl)ccc(F)c2-c2c(O)c(C)nn(C)c2=O)cc1 [Compound A-1.039] : reported percentage damage caused to the plant, five point scale, SETFA = 5 (5=80-100%)

percentage damage caused to the plant, five point scale, SETFA recorded for this compound, Cc1nn(C)c(=O)c(-c2c(F)ccc(Cl)c2CCc2ccc(C3CC3)cc2)c1O [Compound A-1.038] , is 5 (5=80-100%)

Sure, the documented percentage damage caused to the plant, five point scale, SETFA for Cc1nn(C)c(=O)c(-c2c(F)ccc(Cl)c2CCc2ccc(C#N)cc2)c1OC(=O)C(C)C [Compound A-3.036] is 4 (4=60-79%)

Form field percentage damage caused to the plant, five point scale, SETFA, entry Cc1nn(C)c(=O)c(-c2c(F)ccc(Cl)c2CCc2ccc(S(C)(=O)=O)cc2)c1O [Compound A-1.032] : 5 (5=80-100%)
